Target: GABA transporter (Mus musculus) (UniProt P31650+P31651+P31649+P31648)
Experiment: Ratio for ED50 for inhibition of rotarod and inhibition of DMCM induced convulsions in mice
Format: functional
REPORTED METRIC: Protective index
Lab note: record the figure alone, no unit after it.

Inquiry: Please report the recorded Protective index for Cc1ccccc1C(=CCOCCCN1CCC[C@@H](C(=O)O)C1)c1ccccc1C .
Reply text: 4.8

Inquiry: Please report the recorded Protective index for O=C(O)[C@@H]1CCCN(CCOCCC(c2ccccc2)c2ccccc2)C1 .
Reply text: 5.3

Inquiry: Please report the recorded Protective index for O=C(O)[C@@H]1CCCN(CCOCCN(c2ccccc2)c2ccccc2)C1 .
Reply text: 1.6

Inquiry: Please report the recorded Protective index for Cc1ccccc1/C(=C/COCCN1CCC[C@@H](C(=O)O)C1)c1ccccc1 .
Reply text: 3.9
